Target: other kinases examined of the SRC family
Test: Kinase selectivity panel by Cerep
Settings: read-out: IC50, all other kinases examined of the SRC family
measure-name: IC50

# return recorded IC50 for entry O=C(Nc1ccc(CN2CCN(c3nccc(Nc4cc(C5CC5)[nH]n4)n3)CC2)cc1)c1ccccc1C(F)(F)F
> 100 nM

----------
Biological target: active FYN (human recombinant, 62.7 kDa) (Homo sapiens)
Sequence (P06241 whole entry): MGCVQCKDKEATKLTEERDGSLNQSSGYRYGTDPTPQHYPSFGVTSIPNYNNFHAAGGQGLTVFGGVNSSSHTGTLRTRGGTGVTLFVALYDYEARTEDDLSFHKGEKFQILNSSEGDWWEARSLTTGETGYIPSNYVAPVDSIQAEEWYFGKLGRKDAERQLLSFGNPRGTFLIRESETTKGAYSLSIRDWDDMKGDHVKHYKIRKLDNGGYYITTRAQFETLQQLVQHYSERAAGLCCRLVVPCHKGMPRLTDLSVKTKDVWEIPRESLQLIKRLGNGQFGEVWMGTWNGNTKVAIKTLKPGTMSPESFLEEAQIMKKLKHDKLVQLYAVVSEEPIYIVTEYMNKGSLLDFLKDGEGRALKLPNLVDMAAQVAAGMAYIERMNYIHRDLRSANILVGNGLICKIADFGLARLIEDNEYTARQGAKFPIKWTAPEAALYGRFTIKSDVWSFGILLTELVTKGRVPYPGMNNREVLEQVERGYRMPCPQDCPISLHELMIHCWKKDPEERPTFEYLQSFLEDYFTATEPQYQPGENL
Test: In vitro kinase assay (Z′-LYTE FRET)
Assay type: biochemical
Conditions: read-out: IC50(nM) FYN INHIBITION
Field: label. Allowed values: True (IC50 < 200 nM) or False (IC50 >= 200 nM).

Recorded results for 3 compounds are shown here.
# TODO verify IC50 < 200 nM strictly for this compound: O=C(Nc1ccc(CN2CCN(c3nccc(Nc4cc(C5CC5)[nH]n4)n3)CC2)cc1)c1cnccc1C(F)(F)F
True

# TODO verify IC50 < 200 nM strictly for this compound: O=C(Nc1ccc(CN2CCN(c3nccc(Nc4cc(C5CC5)[nH]n4)n3)CC2)cc1)c1ncccc1C(F)(F)F
True

# TODO verify IC50 < 200 nM strictly for this compound: O=C(Nc1ccc(CN2CCN(c3nccc(Nc4cc(C5CC5)[nH]n4)n3)CC2)cc1)c1cnccn1
False

Turning to the following compound.
# TODO verify IC50 < 200 nM strictly for this compound: O=C(Nc1ccc(CN2CCN(c3nccc(Nc4nnc(C5CC5)o4)n3)CC2)cc1)c1ccccc1C(F)(F)F
False

----------
Target: active FYN (human recombinant, 62.7 kDa) (Homo sapiens)
Experiment: In vitro kinase assay (Z′-LYTE FRET)
Assay type: biochemical
Details: read-out: IC50(nM) FYN INHIBITION
Field: label. Allowed values: rule met (IC50 < 90 nM) or rule not met (IC50 >= 90 nM).

Recorded results for 5 compounds are shown here.
# TODO verify IC50 < 90 nM strictly for this compound: C[C@@H]1CN(c2nccc(Nc3cc(C4CC4)[nH]n3)n2)CCN1Cc1ccc(NC(=O)c2cccnc2C(F)(F)F)cc1
rule not met

# TODO verify IC50 < 90 nM strictly for this compound: CCc1cc(CN2CCN(c3nc(C)cc(Nc4cc(C5CC5)[nH]n4)n3)CC2)ccc1NC(=O)c1ccccc1F
rule not met

# TODO verify IC50 < 90 nM strictly for this compound: C[C@H]1CN(c2nccc(Nc3cc(C4CC4)[nH]n3)n2)CCN1Cc1ccc(NC(=O)c2cccnc2C(F)(F)F)cc1
rule not met

# TODO verify IC50 < 90 nM strictly for this compound: Cn1cc(C(=O)Nc2ccc(CN3CCN(c4nccc(Nc5cc(C6CC6)[nH]n5)n4)CC3)cc2)c(C(F)(F)F)n1
rule met

# TODO verify IC50 < 90 nM strictly for this compound: O=C(Nc1ccc(C(F)(F)F)cc1)c1ccc(CN2CCN(c3nccc(Nc4cc(C5CC5)[nH]n4)n3)CC2)cc1
rule not met

Turning to the following compound.
# TODO verify IC50 < 90 nM strictly for this compound: Cc1ccccc1C(=O)Nc1ccc(CN2CCN(c3nccc(Nc4cc(C5CC5)[nH]n4)n3)CC2)cc1
rule met

----------
Target: active FYN (human recombinant, 62.7 kDa) (Homo sapiens)
Assay: In vitro kinase assay (Z′-LYTE FRET)
Format: biochemical
Conditions: read-out: IC50(nM) FYN INHIBITION
measure-name: IC50 (nM)
Expressed in nM, but write only the number.

Sample answers from the record:
# return recorded IC50 for entry O=C(Nc1ccc(CN2CCN(c3nccc(Nc4cc(C5CC5)[nH]n4)n3)CC2)cc1)c1ccc(C(F)(F)F)cc1 [Compound 10]
950

# return recorded IC50 for entry COc1cc(C)ccc1C(=O)Nc1ccc(CN2CCN(c3nccc(Nc4cc(C5CC5)[nH]n4)n3)CC2)cc1 [Compound 15]
220

Let's switch to this molecule now.
# return recorded IC50 for entry O=C(Nc1ccc(CN2CCN(c3nccc(Nc4cc(C5CC5)[nH]n4)n3)CC2)cc1)c1nccnc1C(F)(F)F [Compound 36]
8
